Origin of measurements: patent EP0025528A1

Assay: in vivo
Conditions: iv
Source text: Die akute Toxizität wurde an NMRI-Mäusen durch intravenöse bzw. orale Gabe von steigenden Dosen der erfindungsgemäßen Verbindung ermittelt.
Form field: selectivity ratio (one value per entry).
quantity: selectivity ratio

# compound, experimentalValue
rows = [
    ("CC(=O)c1ccccc1SCC(O)CNC(C)(C)C (racemic)", 2520),
    ("CC(=O)Nc1ccc(OCC(O)CNC(C)C)cc1 (centres unmarked)", 1030),
]
